All figures here come from the supplement of paper PMC6555819.

System: THRa:RXRa (NR concentration 90 nM, RXRa partner concentration 90 nM)
Test: PBM binding z-score (relative to random genomic background probes); higher = stronger binding; sequences stand for … in GC…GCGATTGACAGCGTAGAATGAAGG
READOUT_TYPE: PBM binding z-score

>>> obs_value("CCAGACAGGTGAATGGTAACTCAGTCTGGTACGC")
-0.333
>>> obs_value("CCTATTAGTTGACCACAAGGGCAACCGAAGCTCG")
1.23
>>> obs_value("TCTATTAGTTGATTAGGGCAACCTAAACAGCGGA")
0.862
>>> obs_value("ATATGTAGATTACATCCGGGTCATTCAGGCTATG")
3.14
>>> obs_value("ATCGAAAGGTTGTGAGGTGAGTATACAGAAAGGC")
2.23
>>> obs_value("TCACGGAGGACACGAAGGTCAGAGCTTTCCAGAG")
2.73
>>> obs_value("TCTAGTTGGTCAAAGGTCACACATTCGAAATGCG")
4
>>> obs_value("CGTCCAAGGTCAAAGGTCAGTTAAGAGATGACGG")
5.11
>>> obs_value("TCTGGGAGGACACGAAAGGTCAGAGCTCGACATC")
3.73
>>> obs_value("TGAATGAGGTTAAAGCTCAGGGAACGTGGCGTCG")
2.16
>>> obs_value("GCGACTGGGGCAAAGCAGGTTACCATAAGGTTGG")
2.84
>>> obs_value("AGAATGAGATTAAGATCAGGGAAACAGAATACAT")
-0.0153
>>> obs_value("CCTACTGGGCCATCACGTCATTGATATCAACGTT")
-0.192
>>> obs_value("ATATGTAGGTTAAGGGTCTTTCAGGTTGGTTCGC")
1.54
>>> obs_value("CCTACTGGGCCAAAAAGGTCATTGAAGCCGATAA")
3.08
>>> obs_value("ATCCCAAGGTGATCGTGAGGTCGTTGATACTAAC")
3.42
>>> obs_value("CGGCCAAGGTCAAGGTCAGTGAAAGAGACTCGAA")
4.33
>>> obs_value("TGAATGAGGTTCAAGATCAGGGAACGTGGCGTCG")
0.882
>>> obs_value("CAAACTAGGTCAAGAGGTTAAAGTCCGCTTCCCG")
3.36
>>> obs_value("CCTACTGGGCCACGAATGGTCATTGATTCAGTGA")
-0.231
>>> obs_value("TGAATGAGGTTATAAGATCAGGTAACGTTGCAAA")
2.61
>>> obs_value("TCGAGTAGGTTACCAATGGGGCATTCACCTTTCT")
0.504
>>> obs_value("TCGAGTAGGTTACCAATGGGGTATTCAGCTTTCT")
0.253
>>> obs_value("TAGCCTAGGTCATTCAGGGGCCAGGATAGAAAGC")
3.57
>>> obs_value("TCTTGTAGATCAAGCAGGTTTAGAAAGCCTGAGT")
-0.173
>>> obs_value("TCTATTAGTTGATTAGGGCAAGCGAAACAGCGGA")
0.409

---

Test system: RXRa DBDmut IVT, anti-RXR (DBD mutation: RXRa K156A/R161A, NR concentration 90 nM)
Test: PBM binding z-score (relative to random genomic background probes); higher = stronger binding; sequences stand for … in GC…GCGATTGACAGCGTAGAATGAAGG
Response key: Criterion met means PBM binding z-score >= 0.9; Criterion not met means PBM binding z-score < 0.9.

>>> category_label("TCCTATAGGTAAAGGTGAAAGTCGAACGATATGA")
"Criterion not met"
>>> category_label("TCAATTAGTTGATTAGGGCAACCGAAACAGCGGA")
"Criterion met"
>>> category_label("CCTAATGGGCCACGAAAGGTCATTGATTCAGTGA")
"Criterion met"
>>> category_label("ACTAGTTGGTCAGCTGAGGTCATACACAATTCGG")
"Criterion met"
>>> category_label("CCAGACAGGTGAGAAGGTAACACAGCCTCGATTA")
"Criterion not met"
>>> category_label("TAGCCTAGGTCAGATCGTGCCAGTATACGCTATA")
"Criterion not met"
>>> category_label("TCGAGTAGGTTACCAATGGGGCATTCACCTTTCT")
"Criterion not met"
>>> category_label("CGAACCAGGTCATCCAGGACAGTGAATACATTGA")
"Criterion met"
>>> category_label("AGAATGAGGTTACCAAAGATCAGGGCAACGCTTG")
"Criterion met"
>>> category_label("CGAACTAGGTTAGAACAGGACAGTGAAGGATGAT")
"Criterion not met"
>>> category_label("CGGACTGGGGCAAGGTTACCATAACGCACAGCCA")
"Criterion not met"

---

Tested on: PPARg:RXRa DBDmut IVT, anti-RXR (DBD mutation: RXRa K156A/R161A, NR concentration 270 nM, RXRa partner concentration 90 nM)
Test: PBM binding z-score (relative to random genomic background probes); higher = stronger binding; sequences stand for … in GC…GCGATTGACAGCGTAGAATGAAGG
Where PBM binding z-score equals or exceeds 3, the correct label is 1; where it does not, the label is -1.

>>> category_label("GCTAGTTGGTCAGTAAAAGGTTACACACCGGTCG")
-1
>>> category_label("ACTAGCAAGCCAAGGGTCACTCAAGATTAGTCCG")
-1
>>> category_label("TCATATAGGTAAACAGGTGAAAGGCCGTAAGTTA")
1
>>> category_label("TTACCAAGGTGAAGGTCGTTGGTCCCTCTGTAGA")
-1
>>> category_label("AGAATGAGGTTAAGAACAGGGAAACAGAATACAT")
-1

---

Each entry below carries its recorded PBM binding z-score.
Test system: PPARg:RXRa IVT, anti-PPARg (NR concentration 270 nM, RXRa partner concentration 90 nM)
Test: PBM binding z-score (relative to random genomic background probes); higher = stronger binding; sequences stand for … in GC…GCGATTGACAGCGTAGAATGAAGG
READOUT_TYPE: PBM binding z-score

>>> obs_value("CCGCGGAGGACAGAAGGTCAGAGCTGTCCGCTTT")
0.1
>>> obs_value("AATACAGGGTCAACGTAGGCCAGAGTACGCACAG")
4.2
>>> obs_value("TCATAAAGGTAAACAGGTGAAAGTCCGTAAGTTA")
2.72
>>> obs_value("TCTTGTAGATCAAAGGTTAAGATAGCCGAAGCCT")
4.36
>>> obs_value("AGTCAATGTTCACTAGGTAACGTAAGATTCAGCT")
2.92
>>> obs_value("ATCTCGAGGTAAAGATAGTTCAGTGAATGCAAAT")
0.54
>>> obs_value("CCTGGTAGGTCATGGTCAGCTAATCTACAGTATG")
5.18
>>> obs_value("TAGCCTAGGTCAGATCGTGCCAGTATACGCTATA")
1.66
>>> obs_value("GCTTGTAGGTCAAGGTTAAGAAAGACTAAGCTAA")
8
>>> obs_value("CTCGAAAGGTCGTGCTCAGTTGAGTATACCAAAC")
1.41
>>> obs_value("ATATGTACGTTACATCCGGGTCATTCAGGCTATG")
1.97
>>> obs_value("CAAACTAGATCACCGGAAGGTCAAAGTCCGCATG")
3.13

---

Tested on: RXRa homodimer (NR concentration 180 nM)
Experiment: PBM binding z-score (relative to random genomic background probes); higher = stronger binding; sequences stand for … in GC…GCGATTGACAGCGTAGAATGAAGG
READOUT_TYPE: PBM binding z-score

>>> obs_value("CCTATTAGTTGACCATCAGGGCAACCGAAGCTCG")
0.205
>>> obs_value("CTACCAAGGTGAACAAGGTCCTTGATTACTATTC")
0.86
>>> obs_value("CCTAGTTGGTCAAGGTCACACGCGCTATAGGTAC")
4.7
>>> obs_value("GCATATAGGTAATACAAGGTGAAAATCCGATTGT")
0.677
>>> obs_value("AATACAGGGTCATCGTAGGCCAGGGTACGCACAG")
6.38
>>> obs_value("ATCTCTAGGTAATGATAGTTCAGTGAATGCAAAT")
0.462
>>> obs_value("GCTGCTAGGTCCGGTTGGTCAGCTAACGGGTACG")
-0.726
>>> obs_value("AGAATGAGGTTTCCAAAGATCAGGGAAACGCTTG")
0.124
>>> obs_value("CCTAGTCGGTCAAGGTCACACACGCTATAGGTAC")
4.64
>>> obs_value("ATCGAAAGGTCGACGAGCTGAGTATACACCGTTT")
4.01
>>> obs_value("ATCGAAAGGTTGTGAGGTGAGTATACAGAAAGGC")
1.24
>>> obs_value("TTACCGAGGTGAAGGTCGTTGATCCCTCTGTAGA")
2
